Give melting point for every item shown.

Ask | Fill in the blank: the reported melting point of O=c1c2cccnc2c(-c2cccc(Cl)c2)cn1Cc1cccs1 is ____.
Reply | 142 to 145 °C

Ask | # repeat for CC(C)(C)c1cc(OCC(N)=S)cc(C(C)(C)C)c1O
Reply | 163 to 164 °C

Ask | One more molecule: COCCOc1ccc2ccc(N)nc2n1
Reply | 176 °C

Ask | Repeat with CCCCc1c(C(=O)c2ccc(O)cc2)[nH]c2ccc([N+](=O)[O-])cc12
Reply | 181 °C

Ask | Subsequent entry: O=C(O)C(Cl)=C(Cl)C(=O)O
Reply | 107 to 110 °C

Ask | Proceed to COC(=O)NC(C)(C)c1ccc(CBr)cc1
Reply | 74 to 76 °C

====

Provide the recorded melting point for the entries that follow.

Ask | What does the record list as melting point for CCN(CC)CCOc1ccc(NC(=O)C#Cc2ccc(C(F)(F)F)cc2Cl)cc1N ?
Reply | 127 to 130 °C

Ask | Subsequent entry: CC(=O)N1CCN(Cc2cnc(-c3cc4c(C)ccc(N(C)S(=O)(=O)c5cccs5)c4[nH]3)s2)CC1
Reply | 171 to 172 °C

Ask | Also O=C(CCc1cccnc1)NCCCCC1CCN(C(c2ccccc2)c2ccccc2)CC1 ?
Reply | 139 °C

Ask | Next compound up: COc1nn(-c2ccc(C)c3c2OC(C)(C)C3)c(=O)o1
Reply | 60 to 62 °C

Ask | Then this compound: O=c1c2cc(F)c(N3CCCC3)nc2n(Cc2ccccc2)c(=O)n1O
Reply | 219 to 220 °C

Ask | One more compound: Cc1ccccc1CC1=NNC(=O)CC1
Reply | 123 to 125 °C

Ask | Try this compound too: S=C(NCc1cccnc1)NC(=Nc1cccc2ccccc12)c1ccccc1
Reply | 153 to 154 °C

Ask | Entry to check: CN(CCOc1ccc(Cl)c2c1CC(=O)N2)c1cccs1
Reply | 203 to 204 °C

Ask | Record: CCOC(=O)N1CCC(=C2c3ccccc3C=Cc3ccccc32)CC1
Reply | 123 to 124 °C

Ask | Try this compound too: C[C@@H](c1ccc(-c2ccc(C#N)cn2)cc1)N1CC[C@](CC(C)(C)O)(c2ccc(F)cc2)OC1=O
Reply | 155 to 157 °C

Ask | Same for COC(=O)Nc1cc(-c2nc(-c3ccco3)no2)ccc1Cl
Reply | 200 to 201 °C

Ask | // query: CC(C#CC1CC(Oc2ccc(F)cc2)C1)N(O)C(N)=O (stereo not given)
Reply | 125 to 127 °C

Ask | Thanks! And CC(OC(=O)OC1CCCCC1)OC(=O)C1(C(=O)OC(C)OC(=O)OC2CCCCC2)Oc2ccc(C[C@@H](C)NC[C@H](O)c3cccc(Cl)c3)cc2O1 (stereo not given in full) ?
Reply | 78 to 81 °C

Ask | Next entry: CCN(CC)Cc1ccc2[nH]c(-c3ccccc3F)cc(=O)c2c1
Reply | 184 to 185 °C

Ask | Item: CCc1c(CCC(=O)O)c[nH]c1C=O
Reply | 128 to 134 °C

Ask | And O=C(NC1CCCCC1)c1c(O)c2cc(Cl)ccc2n(Cc2ccccc2)c1=O ?
Reply | 158 °C

Ask | Another compound to check: CCCc1c(OCC(O)COc2ccc(C(=O)O)cc2Br)ccc(C(C)=O)c1O (stereo not given)
Reply | 93 to 95 °C

Ask | Repeat with Cn1c(=O)c(Oc2c(F)cccc2F)cc2cnc(S(C)(=O)=O)nc21
Reply | 215 to 216 °C

Ask | And the next one, C=CCOc1ccc(C(=O)C=Cc2ccc(OC)c(OC)c2)cc1 ?
Reply | 74.5 to 75 °C

Ask | Moving on to the next compound: Nc1c2c(nc3ccccc13)-c1ccc(Cl)cc1CC2
Reply | 205 to 208 °C
